From: patent US10611733B2

# target of assay: HCV Con1b (Replicon)
# experiment summary: HCV Con1b (Replicon) Luciferase end-point
# Type: cell-based, Hepatitis C Virus
metric name: IC50

Previously resolved entries follow.
compound	metric name	test value
O=C(CSc1nc2ccccc2c(=O)n1-c1ccc(F)c(Cl)c1)Nc1ccc2c(c1)CCC2	IC50	1 to 5 µM
O=C(CSc1nc2ccccc2c(=O)n1-c1ccc(Cl)c(Cl)c1)Nc1cccc2c1CCC2	IC50	5 to 25 µM
O=C(CSc1nc2cccc(F)c2c(=O)n1-c1cc(F)c(F)c(F)c1)Nc1ccc2c(c1)CCC2	IC50	1 to 5 µM
O=C(CSc1nc2cccc(F)c2c(=O)n1-c1ccc(Cl)c(Cl)c1)Nc1ccc2c(c1)CCC2	IC50	< 1 µM
O=C(CSc1nc2ccccc2c(=O)n1-c1ccc(F)c(Cl)c1)Nc1cccc2c1CCC2	IC50	1 to 5 µM
O=C(CSc1nc2ccccc2c(=O)n1-c1ccc(F)c(Cl)c1)Nc1ccc2c(c1)OCO2	IC50	5 to 25 µM

Record IC50 per entry; entries follow.
1. Cc1cccc2c(=O)n(-c3ccccc3)c(SCC(=O)Nc3ccc4c(c3)CCC4)nc12
2. O=C(CSc1nc2cccc(F)c2c(=O)n1-c1ccccc1)NC1CCCc2ccccc21 (centres unmarked)
3. O=C(CCSc1nc2ccccc2c(=O)n1-c1ccc(F)c(Cl)c1)Nc1ccc2c(c1)CCC2
4. O=C(CSc1nc2ccccc2c(=O)n1-c1ccc(F)c(F)c1)Nc1ccc2c(c1)CCC2
5. O=C(CSc1nc2cccc(F)c2c(=O)n1-c1ccc(Cl)c(F)c1)Nc1ccc2c(c1)CCC2
6. O=C(CSc1nc2ccccc2c(=O)n1-c1ccc(Cl)c(Cl)c1)Nc1ccc2c(c1)OCO2

Outgoing:
1 to 5 µM
5 to 25 µM
5 to 25 µM
5 to 25 µM
1 to 5 µM
1 to 5 µM

Hey, can you go through the list below and give me IC50 for every item?
1. O=C(CSc1nc2ccccc2c(=O)n1-c1ccc(F)c(F)c1)Nc1cccc2c1CCC2
2. O=C(CSc1nc2ccccc2c(=O)n1-c1ccc(Cl)c(Cl)c1)Nc1ccc2c(c1)CCC2

Outgoing:
1: < 1 µM; 2: 1 to 5 µM

====

Provide the reported CC50 of each item.
# Test system: WNV
# experiment summary: WNV antiviral assay
# Type: cell-based, West Nile Virus
# condition set: read-out: TC50 (the source's name)

Example results:
compound	metric name	test value
Cc1ccc(-n2c(SCC(=O)Nc3ccc4c(c3)CCC4)nc3ccccc3c2=O)cc1Br [Example C36]	CC50	≥ 100 µM
O=C(CSc1nc2ccccc2c(=O)n1-c1ccc(F)c(Cl)c1)Nc1ccc2c(c1)CCC2 [Example C12]	CC50	≥ 100 µM
O=C(CSc1nc2c(F)cccc2c(=O)n1-c1cc(Cl)cc(Cl)c1)Nc1ccc2c(c1)CCC2 [Example C39]	CC50	50 to 100 µM

Okay, now this compound:
So for O=C(CSc1nc2ccccc2c(=O)n1-c1ccccc1)Nc1ccc2c(c1)CCC2 [Example C32] , the logged CC50 turned out to be ≥ 100 µM

====

# experiment summary: JEV cell based virus CPE reduction assay
# Design: species or system Japanese Encephalitis Virus
# condition set: read-out: TC50 (the source's name)
metric name: CC50

Given item Cc1csc(NC(=O)CSc2nc3ccccc3c(=O)n2-c2ccc(Cl)c(Cl)c2)n1 , the value recorded as its CC50 is ≥ 100 µM
